Would you kindly list cytotoxicity at 70.5 h for each of these compounds?
# assay_name: Human HepG2 cell viability assay in 384 well format
# Format: toxicity, cell-based
# Set-up: dose 125 nL, time 70.5 hour; concentration not given beside the values
# experimental_setup: HepG2 cells, read-out: Inhibition
Numbers only, in %.

Required: cytotoxicity at 70.5 h, one value per compound below.
1. CC1CCN(C(=O)C2CCN(c3ccc(Cl)cc3C#N)CC2)CC1
2. CCc1ccc(S(=O)(=O)Nc2cnc(N3CCOCC3)nc2)cc1
3. CC(NCc1cccnc1)c1ccc(OCC(=O)NC2CC2)cc1 (configuration not stated)
4. Cn1cc(C(C)(O)CNc2ccc(C(F)(F)F)cn2)cn1 (configuration not stated)
5. COc1ccc([C@@H]2CN(c3cc(OC)ncn3)C[C@H]2N(C)C)cc1
6. Cc1nc(C)n(CC2CCCN2Cc2cscn2)n1 (configuration not stated)
7. CCN1CCC[C@@H]1CNC(=O)c1cc(COc2ccccc2)[nH]n1

Solution:
1. -6.44
2. -2.95
3. -8.83
4. -1.94
5. 22.1
6. -9.32
7. -1.42

Required: cytotoxicity at 70.5 h, one value per compound below.
1. CC(C)COCCCNC(=O)c1cccnc1N1CCOCC1
2. Cc1cc(N2CCCC2)nc(CNS(=O)(=O)Cc2ccccc2)n1
3. O=C(NC[C@H]1OC[C@@H](NCc2ccccn2)[C@@H]1O)N1CCOCC1

Solution:
4.2
-7.92
-10.1

Required: cytotoxicity at 70.5 h, one value per compound below.
1. O=C(c1ccccn1)N1CCN(c2ccc(-n3cccc3)nn2)CC1
2. Cc1occc1CNC(=O)N(CCCO)C1CCc2ccccc21 (configuration not stated)
3. CSCC(C)N(C)S(=O)(=O)c1ccc(Cl)cc1C#N (configuration not stated)
4. Cc1cnc(NC(C)Cc2cccnc2)nc1N(C)C (configuration not stated)
5. CCOCCC(=O)N1CCCN(c2ccccc2C)CC1
6. Cc1nc2c(c(=O)n1C)CCN(Cc1cc3ccccc3[nH]1)CC2
7. CCC(C)NC(=O)c1ccc(CNC(=O)CCC(C)C)cc1 (configuration not stated)

Solution:
-4.16
-1.74
-5.66
0.166
-4.5
0.793
15.4

Required: cytotoxicity at 70.5 h, one value per compound below.
1. CN(CCN1CCCCCC1)c1nccc(N2CCC(O)C2)n1 (configuration not stated)
2. CCCNC(=O)Cn1nc(C)c2cnn(C(C)(C)C)c2c1=O
3. Cn1cccc1C(=O)N1CCCn2nc(CCC(=O)NC3CC3)cc2C1
4. CC(CO)CN(Cc1ccccc1)Cc1c[nH]cn1 (configuration not stated)
5. Cc1ccc(C2CCCCCN2C(=O)Nc2cn[nH]c2)o1 (configuration not stated)
6. O=C(NC1CCN(CC2CC2)C1)c1ccc(C(=O)c2cc[nH]c2)cc1 (configuration not stated)
7. CN(C)[C@@H]1CCN(c2ncc(F)cn2)[C@H]1Cc1ccccc1
8. Cn1cc(C(C)(O)CNC(=O)c2cc(Br)cn2C)cn1 (configuration not stated)

Solution:
-6.64
19.1
9.42
-15.2
-6.84
-9.44
-4.36
7.26
